The reported measurements were obtained from ChEMBL document CHEMBL4406897.

- Tested on: Plasmodium falciparum
- measurement_description: Antimalarial activity against Plasmodium falciparum TM4/8.2 infected in human erythrocytes assessed as reduction in [3H]-hypoxanthine incorporation pretreated for 24 hrs followed by [3H]-hypoxanthine addition measured after 18 hrs by liquid scintillation counting method
- Type: functional, organism-based
result_type: IC50 (nM)
Numbers only, in nM.

Example cases with answers are listed next.
smiles_repr: Cl.Nc1nc(N)c(-c2ccccc2)c(CCCCOc2ccccc2)n1
observed_result: 360

smiles_repr: Cl.Nc1nc(N)c(-c2ccccc2)c(CCc2ccccc2OCCCc2ccccc2)n1
observed_result: 6730

smiles_repr: Cl.Nc1nc(N)c(-c2cccc(Cl)c2)c(CCCOc2cccc(OCC(=O)O)c2)n1
observed_result: 48

smiles_repr: Cl.Nc1nc(N)c(-c2cccc(Cl)c2)c(CCCCCOc2ccccc2)n1
observed_result: 430

Consider now this further compound.
Problem: I would be grateful if you could share the reported IC50 for Cl.Nc1nc(N)c(-c2ccccc2)c(CCc2ccccc2OCc2ccccc2)n1 .
Solution: 650

###

For each record, write down the corresponding selectivity ratio.
- System: dihydrofolate reductase
- measurement_description: Selectivity ratio of Ki for human dihydrofolate reductase to Ki for Plasmodium falciparum dihydrofolate reductase N51I/C59R/S108N/I164L quadruple mutant
- Format: toxicity
- applied_conditions: read-out: Ratio Ki
One number for each entry.

Recorded selectivity ratio, per entry:
smiles_repr: Cl.Nc1nc(N)c(-c2ccccc2)c(CCCCOc2cccc(OCC(=O)O)c2)n1
result_type: selectivity ratio
observed_result: 44.2
--
smiles_repr: Cl.Nc1nc(N)c(-c2cccc(Cl)c2)c(CCCOc2ccccc2)n1
result_type: selectivity ratio
observed_result: 7.52

Now look at this entry.
Problem: # lookup: selectivity ratio of Cl.Nc1nc(N)c(-c2ccccc2)c(CCCCCOc2ccccc2)n1
Solution: 9.11

###

- System: dihydrofolate reductase
- measurement_description: Selectivity ratio of Ki for human dihydrofolate reductase to Ki for wild type Plasmodium falciparum TM4/8.2 dihydrofolate reductase
- Assay type: toxicity
- applied_conditions: read-out: Ratio Ki
Record form. Attribute: selectivity ratio. Fill in for each entry.
Numbers only.

Please review the following examples before continuing.
smiles_repr: Cl.Nc1nc(N)c(-c2ccccc2)c(CCCCOc2cccc(OCC(=O)O)c2)n1
selectivity ratio: 91.9
--
smiles_repr: Cl.Nc1nc(N)c(-c2cccc(Cl)c2)c(CCCOc2ccccc2)n1
selectivity ratio: 36.3

Proceeding to the next compound to report its selectivity ratio.
Problem: What does the record list as selectivity ratio for Cl.Nc1nc(N)c(-c2ccccc2)c(CCCCCOc2ccccc2)n1 ?
Solution: 110
